# literature pull: Prothrombin (Homo sapiens, UniProt P00734) Ki
yes if Ki is below 100 nM. no if not; exact matches included in no.

* NCCCC[C@H](NC(=O)[C@@H]1C=CCN1C(=O)[C@@H](CC1CCCCC1)NCC(=O)O)C(=O)C(=O)O | yes
* N=C(N)NCCC[C@H](NC(=O)c1ccc(-c2ccccc2)cc1)B(O)O | yes
* C[C@@H](N)CN1CCC[C@H]1C(=O)NCc1ccc(C(=N)N)cc1 | no
* Cc1ccc(NS(=O)(=O)Cc2ccccc2)c(=O)n1CC(=O)NCc1cc(Cl)ccc1CN | yes
* COc1ccc(-n2nc(C)cc2C(=O)Nc2ccc(-c3ccccc3S(N)(=O)=O)cc2)cc1 | no
* Cc1cnc(NCCc2ccccc2)c(=O)n1CC(=O)NCc1cc(Cl)ccc1CN | yes
* CN(C)C(=O)c1cccc(Oc2nc(Oc3cc(C(=N)N)ccc3O)nc3c2NC(=O)CO3)c1 | no
* Nc1noc2ccc(-n3nc(C(F)(F)F)c4c3C(=O)N(c3ccc(-c5ccccc5CN5CC[C@H](O)C5)cc3)CC4)cc12 | yes
* Cc1nc(N)ccc1CNC(=O)Cn1c(C)ccc(NS(=O)(=O)Cc2ccccc2)c1=O | yes
* N=C(N)N1CCC[C@@H](C[C@H](NC(=O)CN2C(=O)CN(CCCc3ccccc3)C(=O)[C@@H]2Cc2ccccc2)C(=O)c2nccs2)C1 | yes
* COC(=N)NS(=O)(=O)c1ccc(/N=N/c2ccc(N(C)C)cc2)cc1 | no
* COC(=O)N[C@@H](C(=O)N1CCC[C@H]1C(=O)NCC#Cc1c[nH]cn1)C(C1CCCCC1)C1CCCCC1 | yes
* N=C(N)NCCC1CCN(C(=O)[C@H](Cc2cccc(C(=N)N)c2)NS(=O)(=O)c2ccc(Oc3ccccc3)cc2)CC1 | no
* CCN(CC)C(=O)CN[C@@H](C(=O)N1CCC[C@H]1C(=O)NCc1ccccc1Cl)C1CCCCC1 | yes
* Cc1cc(OCCCC(=N)N)cc(OS(=O)(=O)c2ccccc2Cl)c1 | no
* Cc1ccc(NC(=O)c2sc3ccccc3c2Cl)c(C(=O)Nc2ccc(F)cc2)c1 | no

---

Ki values for Prothrombin (Homo sapiens), compiled from several publications.
Experimental Readout: Ki (µM)

• CC(=O)N[C@H](Cc1ccccc1)C(=O)N1CCC[C@H]1C(=O)N[C@@H](CCCn1ccnc1N)B1O[C@@H]2CC3CC(C3(C)C)[C@]2(C)O1 (some centres undefined) = 0.0017
• Cc1cccc2c1c(Br)c(C(=O)NCc1cccc(C(=N)N)c1)n2Cc1cccc(C(=N)N)c1 = 2.07
• O=C(CNS(=O)(=O)c1ccc(Cl)cc1)N[C@H](CCNc1ccncc1)C(=O)N1CCCCC1 = 2
• CC1(C)CNc2c(cc(CCC(=O)N3CCN(Cc4ccncc4)CC3)cc2S(=O)(=O)N[C@@H](Cc2nc3ccccc3s2)C(=O)N2CCC(CCF)CC2)C1 = 0.027
• Cc1cc(OC[C@H]2CC[C@H](C(=N)N)CC2)cc(OS(=O)(=O)c2ccccc2Cl)c1 = 2.1
• COC(=N)NS(=O)(=O)C(F)(F)C(F)(F)C(F)(F)C(F)(F)F = 0.565
• N=C(N)c1ccc(CNC(=O)CNC(=O)[C@H](N)CO)cc1 = 200
• N=C(N)c1ccc2c(c1)ncn2CC(=O)Nc1ccc(-c2ccccc2)cc1 = 12.5
• N=C(N)c1ccc(CNC(=O)[C@@H]2CCCN2CCCc2ccccc2)cc1 = 12
• O=C(O)CN1CCCCC1CCNc1nccc2oc(Cc3cc(Cl)ccc3-n3cncn3)nc12 (centres undefined) = 0.00016
• N=C(N)c1ccc(O)c(CN2CC[C@H](NS(=O)(=O)c3cc4ccncc4s3)C2=O)c1 = 2
• CC(C)CCN1CCC[C@H]1C(=O)NCc1cccc(Cl)c1 = 580
• COC(=N)NS(=O)(=O)c1ccc(NC(=O)[C@@H](Cc2ccccc2)NC(=O)NS(=O)(=O)c2ccc(C)cc2)cc1 = 0.06
• Cc1nc(N)ccc1CNC(=O)Cn1c(C)ccc(NS(=O)(=O)Cc2ccc(Cl)cc2)c1=O = 0.00012
• CCOC(=O)C(Cc1ccccc1)C(=O)Nc1ccc2c(c1)N(C)CC(C)(COc1ccc(C(=N)N)cc1)O2 (centres undefined) = 4.93
• CCOC(=O)N[C@@H](CCCCN)C(=O)c1noc(Cc2ccc(C(=O)NC3Cc4ccccc4C3)cc2)n1 = 60
• CCOC(=O)CCC(=O)N(C/C=C/c1cc(C(=N)N)ccc1O)c1ccc(OC2CCN(C(C)=N)CC2)c(C(F)(F)F)c1 = 2.28
• CCOC(=O)CN(C)C(=O)[C@H](CC(=O)NC[C@@H]1CCCN(C(=N)N)C1)NS(=O)(=O)c1ccc2ccccc2c1 = 0.013
• COC(=O)CC1(C(=O)Nc2ccc(-c3ccccc3C(=O)OC)cc2)CC(c2cccc(C(=N)N)c2)=NO1 (centres undefined) = 2.1
• CN(C)C(=N)c1ccc(/C=C2/CCCC/C(=C\c3ccc(C(=N)N)cc3)C2=O)cc1 = 0.12
• CCCS(=O)(=O)Nc1ccc(C)n(CC(=O)NCC2CCc3nc(N)sc3C2)c1=O (centres undefined) = 3.8
• COc1ccc2cc(S(=O)(=O)NN(Cc3ccc(C(=N)N)cc3)C(=O)N3CCC(C)CC3)ccc2c1 = 0.045
• CCC[C@]1(C)C[C@@H](C(=O)NCc2ccc(C(=N)N)cc2)n2c1c(Cl)nc(NC1CCC1)c2=O = 0.036
• Cc1cc(OCc2cccc(C(=N)N)c2)cc(OS(=O)(=O)c2ccccc2Cl)c1 = 0.099
• C[C@@](O)(C(=O)N1CCC[C@H]1C(=O)NCc1cc(Cl)ccc1CN)c1ccccc1 = 0.0027
• Nc1cc(-n2nnnc2C(=O)Nc2ccc(-c3ccccc3S(N)(=O)=O)cn2)ccc1Cl = 7.9
• COC(=O)CC1(C(=O)Nc2ccc(-c3ccccc3S(N)(=O)=O)cc2)CC(c2cccc(C(=N)N)c2)=NO1.O=C(O)C(F)(F)F (single isomer, unassigned; (-)) = 2.4
• N=C(N)NCCC[C@H](NS(=O)(=O)c1cccc(C(F)(F)F)c1)C(=O)N1CCN(C(=O)CCCCCCCCCCCN)CC1 = 2.5
• N=C(N)c1cccc(-n2nc(C(F)(F)F)cc2C(=O)Nc2ccc(-c3ccccc3S(N)(=O)=O)cc2F)c1 = 0.12
• CC(C)N1CCC(NC(=O)c2cc3ccccc3n2Cc2cc3ccc(Cl)cc3s2)CC1 = 9.04
